All figures here come from the supplement of paper PMC10338343.

test system: MILI (PIWIL2) piRISC loaded with Kctd7 piRNA (26 nt); experiment: pre-steady-state target cleavage rate (min^-1); higher = faster piRNA-guided slicing of the target; settings: guide: Kctd7 piRNA 5'p-UGUUAAUCUCUCAGAGAAGGUGACAG; auxiliary factor: 500 nM mouse GTSF1;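 also: 1 nM active piRISC with 0.1 nM target library at 33 °C single turnover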
Whole data set: some 3,700 sequences, median “pre-steady-state target cleavage rate” near 0.02, cut for the highest 2% near 0.23. The sample as a whole holds a higher share of the highest values than the screen did.
Exercise: state measured pre-steady-state target cleavage rate for each of the sequences provided.
Answers are plain numbers.

Some solved cases for reference:
> print(dat)
                    input.sequence                           readout.kind  test.value
1   UAGUCAGUCACCUUCUCUGAGAGUUUAACA  pre-steady-state target cleavage rate       0.261
2  UAGUGACAGACCUCUCUCUGAGAGAUUAACA  pre-steady-state target cleavage rate      0.0375
3   UAGUCUCUCACCAUCUCUGAGAGAUUAACA  pre-steady-state target cleavage rate      0.0256
4   UAGUGAGUCACCUUCUCUGAGAGAGUAACA  pre-steady-state target cleavage rate       0.239
5   UAGUGAGUCUCCUUCACUGAGAGAUUAACA  pre-steady-state target cleavage rate       0.166
6   UAGUGUGACACCUUCUGUGAGAGAUUAACA  pre-steady-state target cleavage rate       0.123
7   UAGUGAGUCACCUUCUCUGACAGUUUAACA  pre-steady-state target cleavage rate      0.0134
8   UAGUGUGUGACCUUGUCUGAGAGAUUAACA  pre-steady-state target cleavage rate      0.0744

Batch request: pre-steady-state target cleavage rate per item, same order as input.
1. UAGUGUGUCACCUUGUCUGAGAGAUUAACA
2. UAGUGAGUCAGCUUCUCUGAGAGAUUAACA
3. UAGUGAGUCACCUUCUCUGAGAGUUAACA
4. UAGUGAGUCACCUUCUCUGAGAGUAUAACA
5. UAGUCUGACACCUUCUCUGAGAGUUUAACA

[0.134, 0.158, 0.253, 0.144, 0.109]

###

test system: MILI (PIWIL2) piRISC loaded with Kctd7 piRNA (26 nt); assay: pre-steady-state target cleavage rate (min^-1); MIWI and MILI are mouse PIWI proteins and EfPiwi is from a freshwater sponge; tags in brackets are library labels; higher = faster piRNA-guided slicing of the target; conditions: guide: Kctd7 piRNA 5'p-UGUUAAUCUCUCAGAGAAGGUGACAG; auxiliary factor: 500 nM mouse GTSF1;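 also: 1 nM active piRISC with 0.1 nM target library at 33 °C single turnover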
The full ranking holds about 3,700 sequences; the median of “pre-steady-state target cleavage rate” is about 0.02, and the highest 2% start at about 0.23. What follows is part of a selection rich in the highest values, with near analogues and random picks from the rest.
// label = MET if pre-steady-state target cleavage rate is not less than 0.1, otherwise NOT MET

Reported pre-steady-state target cleavage rate reaches at least 0.1 for "UAGUGACUCACCUUCUCUGAGGGAUUAACA" ?
NOT MET

Reported pre-steady-state target cleavage rate reaches at least 0.1 for "UAGUGUGUCACCUACUCUGAGAGAUUAUGA" ?
NOT MET

Reported pre-steady-state target cleavage rate reaches at least 0.1 for "UAGUGGGUCACCUUCUCUGAGAGAUUAACA" ?
MET

Reported pre-steady-state target cleavage rate reaches at least 0.1 for "UAGUGACUCACCUUCUCUGAGAGAUUAAACA" ?
MET
